// data source = patent US9801901B2

Recorded MIC for the following compounds
- System: strains of Klebsiella pneumoniae displaying MDR phenotypes
- assay summary: MIC-assay, Mueller-Hinton broth with G-block alginate, 384-well, OD600 (Table 10)
- Type: cell-based
- test parameters: Klebsiella pneumoniae (5712, Wales, V12) MDR, G-block (OligoCF-5/20) 0%, read-out: MIC
reported metric: MIC (µg/mL)

>  <mol smiles>
CC[C@H]1OC(=O)[C@H](C)[C@@H](O[C@H]2C[C@@](C)(OC)[C@@H](O)[C@H](C)O2)[C@H](C)[C@@H](O[C@@H]2O[C@H](C)C[C@H](N(C)C)[C@H]2O)[C@](C)(O)C[C@@H](C)[C@@H]2N[C@@H](COCCOC)O[C@H]([C@H]2C)[C@]1(C)O

>  <readout qualifier>
=

>  <reported result>
128

$$$$
>  <mol smiles>
CC[C@H]1OC(=O)[C@H](C)[C@@H](O[C@H]2C[C@@](C)(OC)[C@@H](O)[C@H](C)O2)[C@H](C)[C@@H](O[C@@H]2O[C@H](C)C[C@H](N(C)C)[C@H]2O)[C@](C)(O)C[C@@H](C)CN(C)[C@H](C)[C@@H](O)[C@]1(C)O

>  <readout qualifier>
=

>  <reported result>
16

$$$$
>  <mol smiles>
C[C@H]1[C@H](NC(=O)/C(=N\OC(C)(C)C(=O)O)c2csc(N)n2)C(=O)N1S(=O)(=O)O

>  <readout qualifier>
=

>  <reported result>
4

$$$$
>  <mol smiles>
CN(C)[C@@H]1C(O)=C(C(N)=O)C(=O)[C@@]2(O)C(O)=C3C(=O)c4c(O)cccc4[C@@](C)(O)[C@H]3[C@H](O)[C@@H]12

>  <readout qualifier>
=

>  <reported result>
1

$$$$
>  <mol smiles>
CC[C@H]1OC(=O)[C@H](C)[C@@H](O[C@H]2C[C@@](C)(OC)[C@@H](O)[C@H](C)O2)[C@H](C)[C@@H](O[C@@H]2O[C@H](C)C[C@H](N(C)C)[C@H]2O)[C@](C)(O)C[C@@H](C)/C(=N\OCOCCOC)[C@H](C)[C@@H](O)[C@]1(C)O

>  <readout qualifier>
=

>  <reported result>
256

$$$$
>  <mol smiles>
CC(C)(O/N=C(\C(=O)N[C@@H]1C(=O)N2C(C(=O)[O-])=C(C[n+]3ccccc3)CS[C@H]12)c1csc(N)n1)C(=O)O

>  <readout qualifier>
>

>  <reported result>
16

$$$$
>  <mol smiles>
C[C@@H](O)[C@H]1C(=O)N2C(C(=O)O)=C(SCCN=CN)C[C@H]12

>  <readout qualifier>
<

>  <reported result>
2

$$$$
>  <mol smiles>
O=C(O)c1cn(C2CC2)c2cc(N3CCNCC3)c(F)cc2c1=O

>  <readout qualifier>
>

>  <reported result>
8

$$$$
